Taken from ChEMBL document CHEMBL1201862.

- System: SF-539
- PROTOCOL_NOTES: NCI tumour cell line growth inhibition, 48 h
Calls of active or inactive are those of the source. Cut-off read from the data, not from the text of the source: active = GI50 up to about 1.1 µM and inactive = higher.
We begin with a simple list: items and their reported GI50.

Please review the following examples before continuing.
MOLECULE | RESULT
COc1cc(-c2ccccc2)cn2c1nc1ccccc12 | 26.6 µM (inactive)
Cc1cc(O)c(C=O)c(C)c1CCC1(C)C=Cc2cc(O)ccc2O1 (stereo not given) | 18.3 µM (inactive)
Clc1cccc(C2N3CCCCC3[C@@H]3c4[nH]c5ccccc5c4CCN23)c1 (stereo not given in full) | 21.1 µM (inactive)
O=C1CC(C[C@H](O)C2CCCCC2O)CC(=O)N1Cc1ccccc1 (stereo not given in full) | > 100 µM (inactive)
CCOC(=O)c1nc2ccc(C(F)(F)F)cc2nc1Nc1ccc(F)cc1 | 57.5 µM (inactive)

# input For the molecule shown here, `CCN(CC)Cc1ccccc1CC(=O)N1c2ccccc2C(=O)Nc2cccnc21` , give the reported GI50.
# output > 100 µM (inactive)

# input Further, for `O=C1/C(=C/c2ccc([N+](=O)[O-])cc2)CNC/C1=C\c1ccc([N+](=O)[O-])cc1` ?
# output 2.09 µM (inactive)

# input Next record, please: `Cc1nn(C(=O)CC(=O)Nc2ccccc2Cl)c(C)c1/N=N/c1ccccc1Cl`
# output 80.9 µM (inactive)

# input Also, `O=C(NCCCNCCNC(=O)c1cc(-c2ccccc2)nc2ccccc12)c1cc(-c2ccccc2)nc2ccccc12` please.
# output 1.82 µM (inactive)

# input Another molecule to check: CCN(CC)CCO/N=C1/C=C2CCC3C(CC[C@@]4(C)C3CC[C@]4(C)O)[C@@]2(C)CC1 (stereo not given in full)
# output 3.18 µM (inactive)

---

- System: MOLT-4
- PROTOCOL_NOTES: NCI tumour cell line growth inhibition, 48 h
Active and inactive are the calls of the source. No stated cut-off is given here; in the data, active = GI50 up to about 1.1 µM and inactive = higher.
READOUT_KIND: GI50

COMPOUND | EXPERIMENTAL_SYSTEM | READOUT_KIND | RESULT
CC(OC1CC(=O)CC2C(=O)C=CC(=O)C12)c1ccccc1 (stereo unspecified) | MOLT-4 | GI50 | 4.97 µM (inactive)
COc1cc2c(c(O)c1OC)C(=O)C1CCC(=O)N1C2c1cccc2ccccc12 (stereo unspecified) | MOLT-4 | GI50 | 21.4 µM (inactive)
CCOc1cc(/C=N/c2ccc(Oc3ccc(Cl)cc3)c(Cl)c2)ccc1O | MOLT-4 | GI50 | 18.7 µM (inactive)

# input // GI50 lookup, key: C1CCC2C(C1)CCCC2NC1=NCCO1 (stereo unspecified)
# output > 100 µM (inactive)

---

- System: LOX IMVI
- PROTOCOL_NOTES: NCI tumour cell line growth inhibition, 48 h
Active and inactive are the calls of the source. Rule as the data show it: active = GI50 up to about 1.1 µM and inactive = higher.
READOUT_KIND: GI50

CHEMICAL_STRUCTURE | RESULT
N#CCCN(CCC#N)C(=O)c1cccc(C(=O)N(CCC#N)CCC#N)c1 | 16.4 µM (inactive)
CCOC(=O)C1=C(C)N(Cc2ccccc2)C(C)=C(C(=O)OCC)C1c1ccccc1O | 17.9 µM (inactive)

# input GI50 lookup needed for `O=C1/C(=C/c2ccc([N+](=O)[O-])cc2)CNC/C1=C\c1ccc([N+](=O)[O-])cc1` , thanks.
# output 2.09 µM (inactive)

# input Then this compound: `CN(C)c1ccc(/C=N/c2nc3cc4sc(/N=C/c5ccc(N(C)C)cc5)nc4cc3s2)cc1`
# output 47.8 µM (inactive)

# input How about this compound: `O=C(O)c1nn[nH]c1Cl`
# output > 100 µM (inactive)

---

- Test system: SN12C
- PROTOCOL_NOTES: NCI tumour cell line growth inhibition, 48 h
Active and inactive are the calls of the source. No stated cut-off is given here; in the data, active = GI50 up to about 1.1 µM and inactive = higher.
READOUT_KIND: GI50

Would you please look over these solved cases?
COMPOUND | GI50
O=c1c2ccccc2c2c1c1c3ccccc3c(=O)c1c1c3ccccc3c(=O)c21 | > 100 µM (inactive)
CCOC(=O)C1=C(C)N(Cc2ccccc2)C(C)=C(C(=O)OCC)C1c1ccccc1O | 28.4 µM (inactive)
CC(C)C1CC(O)O[C@@H]([C@@H](C)[C@H]2CC(=O)[C@@H]3[C@@H]4[C@@H](O)[C@H](O)[C@H]5[C@@H](O)[C@H](O)CC[C@]5(C)[C@H]4CC[C@]23C)C1 (stereo partly specified) | 28.7 µM (inactive)
O=C(Nc1ccc(Cl)cc1Cl)C1C(=O)N(c2ccc(Cl)cc2Cl)C(=O)/C1=N\Nc1ccc([N+](=O)[O-])cc1[N+](=O)[O-] (stereo unspecified) | 74.6 µM (inactive)

# input Entry under review: `CC#Cc1ccc(-c2ccccc2)s1` . Reported GI50?
# output > 100 µM (inactive)

# input Again, but for CCC/C=C/C=C/C(=O)OC1C(C)C2(O)C3C=C(C)C(=O)C3CC(COC(C)=O)=CC2C2C(C)(C)C12OC(=O)C(C)C (stereo unspecified)
# output 11 µM (inactive)

# input Okay, and `COc1ccc(Nc2nc(N)c(C(=O)c3ccco3)s2)cc1` ?
# output > 70.8 µM (inactive)

# input What do you have for `FC(F)(F)c1ccccc1N1CCN(c2nc(-c3cccs3)nc3ccc(Br)cc23)CC1` ?
# output 45.8 µM (inactive)

# input // repeat for OC(CCNC12CC3CC(CC(C3)C1)C2)c1ccccc1 (stereo unspecified) and report
# output > 100 µM (inactive)

# input Next: `CCCCCCCCCCCCCCCCNc1cccc2ccccc12`
# output > 100 µM (inactive)

# input For `CC(=O)Nc1ccc(-c2nnc(SCC(=O)Nc3cccc([N+](=O)[O-])c3)o2)cc1` then?
# output 16.1 µM (inactive)

# input Another compound to check: `O=C(Nc1cc(Cl)c(I)c(Cl)c1)C(F)(F)F`
# output 35.5 µM (inactive)

# input Also need `Cc1cc(C)c2c(c1)CSCc1cc(C)cc(C)c1-2` , thanks.
# output 35.2 µM (inactive)

# input Next entry: `CN(C)CC[N+](C)(C)[BH2-]C(O)O`
# output > 100 µM (inactive)

# input Can you check `O=S(=O)(O)c1ccc([Se][Se]c2ccc(S(=O)(=O)O)cc2)cc1` next?
# output > 100 µM (inactive)

# input Query `O=C(O)Cc1nc[nH]c1C(=O)O` next
# output > 100 µM (inactive)

# input Would you kindly repeat that for `CC(=O)NC(=N/N=C1/C(=O)Nc2ccc(C)cc21)NC(C)=O` ?
# output > 100 µM (inactive)

# input Next: CCOC(=O)N1CC2(C)C=CC1C(C(=O)OC)C2 (stereo unspecified)
# output > 100 µM (inactive)

# input Please do the same for `CC(=O)CC[N+](C)(C)C` as well.
# output 27.7 µM (inactive)

# input Same question, `CN(C)c1ccc(/C=N/c2nc3cc4sc(/N=C/c5ccc(N(C)C)cc5)nc4cc3s2)cc1` this time
# output 83.9 µM (inactive)

# input Now this one: `NC(=O)N=C(NCc1ccccc1)NCc1ccccc1`
# output > 100 µM (inactive)

---

- Tested on: M14
- PROTOCOL_NOTES: NCI tumour cell line growth inhibition, 48 h
Structures can show the parent of a compound that is named as a salt. Active and inactive are the calls of the source. No stated cut-off is given here; in the data, active = GI50 up to about 1.1 µM and inactive = higher.
Write down the outcome that applies. Available outcomes: active, inactive

# input Recorded test outcome, item `CC(C)(C)O/N=C/c1cc(NC(=S)c2ccccc2)ccc1Cl`
# output inactive

# input Another compound to check: CC(=O)C1=C(O)C(N)C2Cc3c(c(O)c4c(O)c(C)ccc4c3C)C(=O)C2(O)C1=O (configuration not stated)
# output inactive

# input Please answer likewise for `O=C(N/C(=C\c1ccc([N+](=O)[O-])cc1)c1nc2ccccc2[nH]1)c1ccccc1`
# output inactive

# input Next entry: `CSC1(SC)CCCCCCCCCCC1`
# output inactive

# input Then COC(=O)C1[C@H](c2ccc3c(c2)OCO3)OC(=O)[C@]1(C(=O)OC)C(=O)c1ccc(OC)c(OC)c1 (some centres not stated) ?
# output inactive

# input Here is the next compound: `O=S(=O)(O)c1ccc([Se][Se]c2ccc(S(=O)(=O)O)cc2)cc1`
# output inactive

# input What would you report for `O=CC(I)=C(c1ccccc1)c1ccccc1` ?
# output inactive

# input How about this compound: CN(C)CCOc1ccc(/C(=C(/CCCl)c2ccccc2)c2ccccc2)cc1 [TOREMIFENE CITRATE]
# output inactive

# input // same read-out, input: `COc1ccc(/C=C2\N=C(c3ccccc3)OC2=O)cc1OC(C)=O`
# output inactive

# input Input `COc1ccc(CCNC2=CC(=O)c3ncccc3C2=O)cc1OC`
# output inactive

# input Then `CCCCNc1nc(O)c2[nH]cnc2n1` ?
# output inactive

---

- System: SK-MEL-28
- PROTOCOL_NOTES: NCI tumour cell line growth inhibition, 48 h
The source made the active and inactive calls. Cut-off read from the data, not from the text of the source: active = GI50 up to about 1.1 µM and inactive = higher.
READOUT_KIND: GI50

COMPOUND | EXPERIMENTAL_SYSTEM | GI50
CCOC1C=CC(=O)C(CO)O1 (stereo not given) | SK-MEL-28 | 16.9 µM (inactive)

# input What is its GI50 for SK-MEL-28? Entry: `Cn1c(N)cc(=O)nc1N`
# output > 100 µM (inactive)

# input Can you handle N=C(N)c1ccc(C(NC(=O)CNS(=O)(=O)c2ccc3ccccc3c2)P(=O)(Oc2ccccc2)Oc2ccccc2)cc1 (stereo not given) next?
# output > 100 µM (inactive)
